// reported pIC50 per item
Assayed system: human BACE-1 (Homo sapiens, UniProt P56817)
Sequence (P56817 46-501): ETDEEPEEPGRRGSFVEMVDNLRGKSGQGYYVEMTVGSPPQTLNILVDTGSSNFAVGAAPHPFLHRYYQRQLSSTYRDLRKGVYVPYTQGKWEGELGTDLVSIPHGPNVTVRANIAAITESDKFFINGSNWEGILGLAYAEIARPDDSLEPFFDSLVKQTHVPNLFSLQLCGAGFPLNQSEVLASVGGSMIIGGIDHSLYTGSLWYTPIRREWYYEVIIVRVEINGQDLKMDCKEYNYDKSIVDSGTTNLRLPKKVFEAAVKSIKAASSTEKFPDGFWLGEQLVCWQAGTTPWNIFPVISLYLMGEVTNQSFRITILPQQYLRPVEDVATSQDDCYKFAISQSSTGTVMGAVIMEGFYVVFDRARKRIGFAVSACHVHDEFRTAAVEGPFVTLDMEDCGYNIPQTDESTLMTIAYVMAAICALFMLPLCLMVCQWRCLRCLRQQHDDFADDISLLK
Procedure details: In Vitro BACE Assay run by CEREP (Example 19)
Test parameters: recombinant enzyme, pH 4.5
// pIC50: -log10(molar conc.)

Item under review: Nc1nc2ccc(Oc3ccccc3)cc2cc1C(CCCC(=O)N(CCN1CCOCC1)C1CCCCC1)C1CCOCC1 (centres unmarked) . Reported pIC50?
5.77

Entry Nc1nc2ccc(Oc3ccccc3)cc2cc1C(Cc1cn(C23CC4CC(CC(C4)C2)C3)nn1)C1CCOCC1 (centres unmarked) please
6.17

Moving on to the next compound: CC(C)(C)n1cc(CC(c2cc3cc(Oc4ccccc4)ccc3nc2N)C2CCOCC2)nn1 (centres unmarked)
5.48

And for COC(=O)C(COCc1ccccc1)NCCCC(c1cc2cc(Oc3ccccc3)ccc2nc1N)C1CCOCC1 (centres unmarked) ?
6.92

Do the same for CN(CC1CCCCC1)C(=O)CC[C@H](c1cc2cc(Oc3ccccc3)ccc2nc1N)C1CCOCC1 please
6.44

And then COc1cc2nc(N)c(C(CCC(=O)NCCC(C)(C)C)C3CCOCC3)cc2cc1Oc1ccccc1 (centres unmarked) , what is it?
6.43
